target: DNA gyrase (Escherichia coli, UniProt P0AES4+P0AES6); construct: purchased Inspiralis, UK; assay: DNA gyrase supercoiling assay (E. coli); format: biochemical; conditions: single concentration (200, 100 or 50 μM), in duplicate, versus the positive control (vehicle)
Sequence (P0AES4 whole entry, one chain of several): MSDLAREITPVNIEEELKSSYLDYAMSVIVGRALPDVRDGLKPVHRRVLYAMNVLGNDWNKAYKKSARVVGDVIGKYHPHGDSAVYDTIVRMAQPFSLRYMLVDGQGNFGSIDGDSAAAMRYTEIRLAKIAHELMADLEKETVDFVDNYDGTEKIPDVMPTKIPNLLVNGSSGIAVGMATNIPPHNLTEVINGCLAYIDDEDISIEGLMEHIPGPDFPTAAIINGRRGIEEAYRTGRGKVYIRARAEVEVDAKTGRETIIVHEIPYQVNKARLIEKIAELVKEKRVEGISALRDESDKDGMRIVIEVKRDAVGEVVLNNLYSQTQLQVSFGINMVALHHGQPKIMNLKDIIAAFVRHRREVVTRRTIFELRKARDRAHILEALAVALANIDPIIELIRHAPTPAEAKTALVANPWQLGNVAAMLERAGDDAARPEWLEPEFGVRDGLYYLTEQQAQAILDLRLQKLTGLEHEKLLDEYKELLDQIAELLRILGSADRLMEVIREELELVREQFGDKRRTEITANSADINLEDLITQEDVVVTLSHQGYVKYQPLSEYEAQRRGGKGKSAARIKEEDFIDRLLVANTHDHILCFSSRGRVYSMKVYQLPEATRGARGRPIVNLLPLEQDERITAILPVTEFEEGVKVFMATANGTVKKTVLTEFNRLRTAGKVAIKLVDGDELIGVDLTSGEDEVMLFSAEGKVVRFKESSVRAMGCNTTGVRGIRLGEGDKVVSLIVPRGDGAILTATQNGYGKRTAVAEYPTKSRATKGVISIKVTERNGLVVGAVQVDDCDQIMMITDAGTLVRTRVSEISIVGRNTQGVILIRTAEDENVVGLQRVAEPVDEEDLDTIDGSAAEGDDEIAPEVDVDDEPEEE
Structures can show the parent of a compound that is named as a salt.
PROPERTY_NAME: % inhibition DNA gyrase

O=C1CN(c2nccc3ccccc23)CCN1CCCNc1cc(=O)oc2ccccc12 [Compound 71, hydrochloride] ... 56%
c1ccc2c(N3CCN(CCNCc4ccc5c(c4)OCO5)CC3)nccc2c1 ... n/a (n/a = not active)
O=C(O)[C@H](NC[C@@H](O)CN1CCN(c2nccc3ccc(F)cc23)CC1)C1CCCCC1 ... n/a (n/a = not active)
O=C(O)C[C@@H](NC[C@H](O)CN1CCN(c2nccc3ccc(F)cc23)CC1)c1ccccc1 ... n/a (n/a = not active)

Now for a further compound.
Query (compound): O=c1cc(OCCCN2CCN(c3nccc4ccccc34)CC2)c2ccccc2o1 [Compound 70, hydrochloride] ; field requested: % inhibition DNA gyrase
86%

###

target: DNA gyrase (Staphylococcus aureus, UniProt P0A0K8+P20831); construct: purchased Inspiralis, UK; assay: DNA gyrase supercoiling assay (S. aureus); format: biochemical; conditions: single concentration (200, 100 or 50 μM), in duplicate, versus the positive control (vehicle)
Sequence (P20831 whole entry): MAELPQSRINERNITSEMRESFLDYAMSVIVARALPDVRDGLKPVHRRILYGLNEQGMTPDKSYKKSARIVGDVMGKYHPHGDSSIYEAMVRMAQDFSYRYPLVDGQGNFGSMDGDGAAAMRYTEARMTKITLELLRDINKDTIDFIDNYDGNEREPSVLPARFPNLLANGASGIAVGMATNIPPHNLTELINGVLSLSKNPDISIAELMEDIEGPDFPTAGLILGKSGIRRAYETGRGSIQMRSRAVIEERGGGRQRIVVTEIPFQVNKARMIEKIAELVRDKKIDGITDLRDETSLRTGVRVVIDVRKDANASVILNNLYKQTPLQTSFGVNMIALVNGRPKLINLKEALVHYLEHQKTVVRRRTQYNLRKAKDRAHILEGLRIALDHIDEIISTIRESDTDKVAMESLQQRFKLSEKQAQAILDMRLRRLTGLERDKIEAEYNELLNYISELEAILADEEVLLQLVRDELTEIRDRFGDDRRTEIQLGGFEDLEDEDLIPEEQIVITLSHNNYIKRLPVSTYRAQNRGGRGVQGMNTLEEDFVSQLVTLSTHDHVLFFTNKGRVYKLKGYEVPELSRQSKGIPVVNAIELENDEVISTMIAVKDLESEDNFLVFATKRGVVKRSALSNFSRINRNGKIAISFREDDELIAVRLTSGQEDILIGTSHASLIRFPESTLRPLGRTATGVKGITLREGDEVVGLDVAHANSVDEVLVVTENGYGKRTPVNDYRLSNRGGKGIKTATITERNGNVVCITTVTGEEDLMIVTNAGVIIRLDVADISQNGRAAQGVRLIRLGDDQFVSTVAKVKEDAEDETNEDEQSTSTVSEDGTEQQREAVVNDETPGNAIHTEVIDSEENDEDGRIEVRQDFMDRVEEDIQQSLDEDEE
Sequence (P0A0K8 whole entry): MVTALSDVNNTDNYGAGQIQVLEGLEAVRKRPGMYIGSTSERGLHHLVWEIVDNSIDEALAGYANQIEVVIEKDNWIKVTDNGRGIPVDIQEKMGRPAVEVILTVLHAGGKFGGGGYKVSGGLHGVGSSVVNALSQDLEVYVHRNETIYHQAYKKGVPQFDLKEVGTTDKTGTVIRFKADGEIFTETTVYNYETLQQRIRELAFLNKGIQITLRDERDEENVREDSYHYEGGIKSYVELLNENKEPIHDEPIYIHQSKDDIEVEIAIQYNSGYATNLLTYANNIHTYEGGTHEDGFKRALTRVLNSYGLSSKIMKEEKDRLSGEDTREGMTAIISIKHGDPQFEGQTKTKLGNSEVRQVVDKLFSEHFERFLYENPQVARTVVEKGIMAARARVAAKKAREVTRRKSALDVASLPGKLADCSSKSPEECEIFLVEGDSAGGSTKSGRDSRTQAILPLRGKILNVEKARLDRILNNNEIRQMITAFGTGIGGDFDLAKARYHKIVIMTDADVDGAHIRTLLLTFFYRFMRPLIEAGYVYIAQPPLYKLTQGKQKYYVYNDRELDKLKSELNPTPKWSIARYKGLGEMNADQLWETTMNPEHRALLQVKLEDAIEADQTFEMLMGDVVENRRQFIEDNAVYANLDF
Where a name gives a salt, the structure may show the parent alone.
Where % inhibition DNA gyrase equals or exceeds 80%, the correct label is Y; where it does not, the label is N.

Please check the record O=C(O)[C@@H](NC[C@H](O)CN1CCN(c2nccc3ccc(F)cc23)CC1)C1CCCCC1 [Compound 138] and state if its % inhibition DNA gyrase is at or above 80%.
Y

Please check the record c1ccc2sc(CNCCCN3CCN(c4nccc5ccccc45)CC3)cc2c1 [Compound 119] and state if its % inhibition DNA gyrase is at or above 80%.
N

Please check the record Cc1c(NCCCN2CCN(c3nccc4ccc(F)cc34)CC2)c2ccccc2oc1=O [Compound 97, hydrochloride] and state if its % inhibition DNA gyrase is at or above 80%.
Y

Please check the record O=c1cc(OCCCN2CCN(c3nccc4ccccc34)CC2)c2ccccc2o1 [Compound 70, hydrochloride] and state if its % inhibition DNA gyrase is at or above 80%.
N

Please check the record c1ccc2c(N3CCN(CCCNCc4ccc5c(c4)OCO5)CC3)nccc2c1 [Compound 120] and state if its % inhibition DNA gyrase is at or above 80%.
N

Please check the record O=c1cc(NC2CCCC(N3CCN(c4nccc5ccccc45)CC3)C2)c2ccccc2o1 (stereo not drawn) [Compound 74, hydrochloride] and state if its % inhibition DNA gyrase is at or above 80%.
N

Please check the record CN(CCCN1CCN(c2nccc3ccccc23)CC1)c1cc(=O)oc2ccccc12 [Compound 53, hydrochloride] and state if its % inhibition DNA gyrase is at or above 80%.
N

Please check the record O=c1cc(NCCCN2CCN(c3nccc4ccc(F)cc34)CC2)c2ccc(O)cc2o1 [Compound 107, hydrochloride] and state if its % inhibition DNA gyrase is at or above 80%.
N

Please check the record COc1ccc2c(N3CCN(CCCNC(=O)c4cccnc4)CC3)nccc2c1 [Compound 36, hydrochloride] and state if its % inhibition DNA gyrase is at or above 80%.
Y

Please check the record O=C(O)CC(NC[C@H](O)CN1CCN(c2nccc3ccc(F)cc23)CC1)C1CCCCC1 (stereo partly drawn) [Compound 137] and state if its % inhibition DNA gyrase is at or above 80%.
N

Please check the record O=C(O)[C@H](NC[C@@H](O)CN1CCN(c2nccc3ccc(F)cc23)CC1)C1CCCCC1 [Compound 139] and state if its % inhibition DNA gyrase is at or above 80%.
N

Please check the record O=C(O)C[C@@H](NC[C@H](O)CN1CCN(c2nccc3ccc(F)cc23)CC1)c1ccccc1 [Compound 142] and state if its % inhibition DNA gyrase is at or above 80%.
N

Please check the record O=c1cc(NC[C@H](O)[C@@H](O)C2CCN(c3nccc4ccc(F)cc34)CC2)c2ccccc2o1 (racemic) [Compound 128, hydrochloride] and state if its % inhibition DNA gyrase is at or above 80%.
N

Please check the record O=C(O)C[C@@H](NC[C@@H](O)CN1CCN(c2nccc3ccc(F)cc23)CC1)c1ccccc1 [Compound 141] and state if its % inhibition DNA gyrase is at or above 80%.
N

Please check the record O=C(NCCCN1CCN(c2nccc3ccccc23)CC1)c1cc2ccoc2cn1 [Compound 42, hydrochloride] and state if its % inhibition DNA gyrase is at or above 80%.
Y

Please check the record Cc1cccc2oc(=O)cc(NCCCN3CCN(c4nccc5ccc(F)cc45)CC3)c12 [Compound 96, hydrochloride] and state if its % inhibition DNA gyrase is at or above 80%.
Y

Please check the record O=c1cc(NCCCN2CCN(c3nccc4ccccc34)CC2)cc(-c2ccccc2)o1 [Compound 60, hydrochloride] and state if its % inhibition DNA gyrase is at or above 80%.
Y

Please check the record Fc1ccc(F)c(CNCCCN2CCN(c3nccc4ccccc34)CC2)c1 [Compound 38, hydrochloride] and state if its % inhibition DNA gyrase is at or above 80%.
N

Please check the record O=C(O)CC(NC[C@@H](O)CN1CCN(c2nccc3ccc(F)cc23)CC1)C1CCCCC1 (stereo partly drawn) [Compound 136] and state if its % inhibition DNA gyrase is at or above 80%.
N
